Consider the following binders; for each one, report its Kd.
- assaySystem: T1, ABH2 WT (human, UniProt Q6NS38 1-261)
- T1 sequence: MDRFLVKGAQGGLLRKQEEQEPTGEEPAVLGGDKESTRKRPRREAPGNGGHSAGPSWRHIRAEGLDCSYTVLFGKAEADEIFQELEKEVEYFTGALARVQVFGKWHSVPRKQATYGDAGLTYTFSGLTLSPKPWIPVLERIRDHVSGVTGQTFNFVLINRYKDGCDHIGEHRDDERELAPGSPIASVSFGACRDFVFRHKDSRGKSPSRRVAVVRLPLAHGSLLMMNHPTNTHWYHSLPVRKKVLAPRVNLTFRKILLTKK
- assayMethodText: EMSA; 0.5 mM αKG, 10 mM Mg2+, 2 mM ascorbate; EMSA: 50 mM Tris-HCl pH 8.0, 50 mM KCl, 10 mM MgCl2, 0.5 mM αKG, 2 mM Na ascorbate; 1.2 µM DNA, 0.4-12.8 µM protein; 10 min 37 °C then 5 min on ice; 10% native
- conditionDetails: protein: recombinant; tags: N-terminal His6; label: 5'-FAM on strand 1; blunt
Reply with a number, then the unit it belongs to.

{"binder": "m1A (dsDNA, N1-methyladenine at position 10 of strand 1) DNA 1: AGTTCAATGATCTTCAT DNA 2: ATGAAGATCATTGAACT", "Kd": "2450 nM"}

# context switch: different binder, same Kd
Short answer for m3C (dsDNA, N3-methylcytosine at position 12 of strand 1) DNA 1: AGTTCAATGATCTTCAT DNA 2: ATGAAGATCATTGAACT : Kd was 3500 nM

Recorded values, source paper PMC10377887.
